// data source = patent US12371454B2

Recorded pIC50, one value per entry.
target: Kras and SOS1 (biotin-tagged human Kras loaded with GDP, His-tagged human SOS1) (Homo sapiens, UniProt P01116, G12D); construct: made in house; host or cells: E. coli (stated for Kras only); experiment: Protein-protein interaction inhibition between Kras and SOS1 (KrasGl2D-SOS PPI) using AlphaScreen; format: binding; conditions: AlphaScreen; biotin-tagged human Kras loaded with GDP, His-tagged human SOS1; read-out: KRAS G12D-SOS PPI IC50
Sequence (P01116 1-188 isoform P01116-2 G12D): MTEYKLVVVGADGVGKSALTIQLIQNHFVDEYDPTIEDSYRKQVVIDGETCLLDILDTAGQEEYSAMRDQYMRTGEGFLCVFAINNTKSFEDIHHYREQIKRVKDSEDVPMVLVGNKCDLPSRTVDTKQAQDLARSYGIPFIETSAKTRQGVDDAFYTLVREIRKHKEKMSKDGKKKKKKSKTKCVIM
Starred links: 1 amine or outer side, 2 acyl side, 3 side chain; linkers in the order of their positions; H or OH if unused. Positions of bridges follow the written chain, without caps; N, C: chain ends. Non-standard residues stand in square brackets, D forms with d. Residues, ends and D or L forms follow the SMILES beside them. *: point of attachment. hPhe(3-Cl-4-CF3) = N[C@@H](CCc1ccc(C(F)(F)F)c(Cl)c1)C(=O)O; hPhe(3-F,4-CF3) = N[C@@H](CCc1ccc(C(F)(F)F)c(F)c1)C(=O)O; NMeCha = CN[C@@H](CC1CCCCC1)C(=O)O; NMeChg = CN[C@H](C(=O)O)C1CCCCC1; NMeβAla = CN(CCC(=O)[*:2])[*:1]; NMeD = CN[C@@H](CC(=O)O)C(=O)O; NMeL = CN[C@@H](CC(C)C)C(=O)O; NMeV = CN[C@H](C(=O)O)C(C)C; NMeA = CN[C@@H](C)C(=O)O; Piperidide = C1CCN(*)CC1; Ac5c = NC1(C(=O)O)CCCC1; Aze = O=C(O)[C@@H]1CCN1; Sar = CNCC(=O)O
In textbook form, pIC50 equals minus log to base ten of the concentration in mol/L.

CC[C@H](C)[C@@H]1NC(=O)[C@H](C)N(C)C(=O)C[C@@H](C(=O)N2CCCCC2)N(C)C(=O)[C@H](C(C)C)N(C)C(=O)C2(CCCC2)NC(=O)[C@@H]2CCCN2C(=O)[C@H](CCc2ccc(C(F)(F)F)c(Cl)c2)NC(=O)CN(C)C(=O)[C@H](CC2CCCCC2)N(C)C(=O)[C@@H]2CCN2C(=O)[C@H](C2CCCCC2)N(C)C1=O [Compound 1622] ([NMeA]I[NMeChg][Aze][NMeCha][Sar][hPhe(3-Cl-4-CF3)]P[Ac5c][NMeV][NMeD]-Piperidide; lactam N-11) :: 6.89

# context switch: different compound, same pIC50
[in] Given CC[C@H](C)[C@@H]1NC(=O)[C@H](CC(C)C)N(C)C(=O)CCN(C)C(=O)[C@H](C(C)C)N(C)C(=O)C2(CCCC2)NC(=O)[C@@H]2CCCN2C(=O)[C@H](CCc2ccc(C(F)(F)F)c(F)c2)NC(=O)CN(C)C(=O)[C@H](CC2CCCCC2)N(C)C(=O)CN(C)C(=O)CN(C)C1=O [Compound 879] (cyclo([Ac5c][NMeV][NMeβAla][NMeL]I[Sar][Sar][NMeCha][Sar][hPhe(3-F,4-CF3)]P)) , state its recorded pIC50.
[out] 7.44

---

Recorded pIC50, one value per entry.
Molecular target: Kras and SOS1 (biotin-tagged human Kras loaded with GDP, His-tagged human SOS1) (Homo sapiens, UniProt P01116, G12D)
Construct: made in house; host or cells: E. coli (stated for Kras only)
Test: Protein-protein interaction inhibition between Kras and SOS1 (KrasGl2D-SOS PPI) using AlphaScreen
Assay type: binding
Conditions: AlphaScreen; biotin-tagged human Kras loaded with GDP, His-tagged human SOS1; read-out: KRAS G12D-SOS PPI IC50
Description: Protein-Protein Interaction Inhibition Between Kras and SOS1 (KrasGl2D-SOS PPI) Using AlphaScreen Protein-protein interaction inhibition (PPI) between Kras and SOS1 was measured by energy transfer from nickel-conjugated donor beads to streptavidin-conjugated acceptor beads using biotin-tagged human Kras expressed in E. coli and loaded with GDP after purification and His-tagged human SOS1 enzyme. […]
Non-standard residues stand in square brackets, D forms with d. Residues, ends and D or L forms follow the SMILES beside them. hPhe(3-Cl-4-CF3) = N[C@@H](CCc1ccc(C(F)(F)F)c(Cl)c1)C(=O)O; hPhe(3-F,4-CF3) = N[C@@H](CCc1ccc(C(F)(F)F)c(F)c1)C(=O)O; NMeGly(cPent) = CN[C@H](C(=O)O)C1CCCC1; NMeCha = CN[C@@H](CC1CCCCC1)C(=O)O; NMeL = CN[C@@H](CC(C)C)C(=O)O; NMeV = CN[C@H](C(=O)O)C(C)C; d(β3hA) = C[C@@H](N)CC(=O)O; NMeA = CN[C@@H](C)C(=O)O; Ac5c = NC1(C(=O)O)CCCC1; Aze = O=C(O)[C@@H]1CCN1; Sar = CNCC(=O)O
In textbook form, pIC50 equals minus log to base ten of the concentration in mol/L.

[in] Given CC[C@H](C)[C@@H]1NC(=O)[C@H](C)N(C)C(=O)C[C@@H](C)NC(=O)[C@H](C2CCCC2)N(C)C(=O)C2(CCCC2)NC(=O)[C@@H]2CCCN2C(=O)[C@H](CCc2ccc(C(F)(F)F)c(Cl)c2)NC(=O)CN(C)C(=O)[C@H](CC2CCCCC2)N(C)C(=O)CN(C)C(=O)CN(C)C1=O [Compound 1478] (cyclo([Ac5c][NMeGly(cPent)][d(β3hA)][NMeA]I[Sar][Sar][NMeCha][Sar][hPhe(3-Cl-4-CF3)]P)) , state its recorded pIC50.
[out] 8.52

[in] What about this molecule? CC(C)C[C@H]1C(=O)N[C@@H](C(C)C)C(=O)N(C)CC(=O)N(C)CC(=O)N(C)[C@@H](CC2CCCCC2)C(=O)N(C)CC(=O)N[C@@H](CCc2ccc(C(F)(F)F)c(F)c2)C(=O)N2CCC[C@H]2C(=O)NC2(CCCC2)C(=O)N(C)[C@@H](CC(C)C)C(=O)N[C@H](C)CC(=O)N1C [Compound 1493] (cyclo([Ac5c][NMeL][d(β3hA)][NMeL]V[Sar][Sar][NMeCha][Sar][hPhe(3-F,4-CF3)]P))
[out] 7.00

[in] What about this molecule? CC[C@H](C)[C@@H]1NC(=O)[C@H](CC(C)C)N(C)C(=O)C[C@@H](C)NC(=O)[C@H](C(C)C)N(C)C(=O)C2(CCCC2)NC(=O)[C@@H]2CCCN2C(=O)[C@H](CCc2ccc(C(F)(F)F)c(Cl)c2)NC(=O)CN(C)C(=O)[C@H](CC2CCCCC2)N(C)C(=O)CN(C)C(=O)[C@@H]2CCN2C1=O [Compound 1020] (cyclo([Ac5c][NMeV][d(β3hA)][NMeL]I[Aze][Sar][NMeCha][Sar][hPhe(3-Cl-4-CF3)]P))
[out] 7.29

---

Recorded IC50, one value per entry.
target: Kras and SOS1 (biotin-tagged human Kras loaded with GDP, His-tagged human SOS1) (Homo sapiens, UniProt P01116, G12D); construct: made in house; host or cells: E. coli (stated for Kras only); assay: Protein-protein interaction inhibition between Kras and SOS1 (KrasGl2D-SOS PPI) using AlphaScreen; type: binding; conditions: AlphaScreen; biotin-tagged human Kras loaded with GDP, His-tagged human SOS1; read-out: KRAS G12D-SOS PPI IC50
Positions of bridges follow the written chain, without caps; N, C: chain ends. Non-standard residues stand in square brackets, D forms with d. Residues, ends and D or L forms follow the SMILES beside them. *: point of attachment. hPhe(3-Cl-4-CF3) = N[C@@H](CCc1ccc(C(F)(F)F)c(Cl)c1)C(=O)O; NMePhe(4-Cl) = CN[C@@H](Cc1ccc(Cl)cc1)C(=O)O; Phe(3-I) = N[C@@H](Cc1cccc(I)c1)C(=O)O; NMeAla(cPr) = CN[C@@H](CC1CC1)C(=O)O; NMeCha = CN[C@@H](CC1CCCCC1)C(=O)O; NMeF = CN[C@@H](Cc1ccccc1)C(=O)O; NMeD = CN[C@@H](CC(=O)O)C(=O)O; NMeL = CN[C@@H](CC(C)C)C(=O)O; NMeV = CN[C@H](C(=O)O)C(C)C; NMeA = CN[C@@H](C)C(=O)O; Piperidide = C1CCN(*)CC1; Pyrrolidide = C1CCN(*)C1; Ac5c = NC1(C(=O)O)CCCC1; Aze = O=C(O)[C@@H]1CCN1; Sar = CNCC(=O)O
Note: unit nM is implicit; provide only the numeric part.

CC[C@H](C)[C@@H]1NC(=O)[C@H](C)N(C)C(=O)C[C@@H](C(=O)N2CCCC2)NC(=O)[C@H](CC(C)C)N(C)C(=O)[C@H](Cc2ccccc2)N(C)C(=O)[C@H](CC(C)C)NC(=O)[C@H](Cc2cccc(I)c2)NC(=O)CN(C)C(=O)[C@H](Cc2ccc(Cl)cc2)N(C)C(=O)CN(C)C(=O)CN(C)C1=O [Compound 884] ([NMeA]I[Sar][Sar][NMePhe(4-Cl)][Sar][Phe(3-I)]L[NMeF][NMeL]D-Pyrrolidide; lactam N-11) :: 63

# context switch: different molecule, same IC50
[in] Given CC[C@H](C)[C@@H]1NC(=O)[C@H](CC(C)C)N(C)C(=O)C[C@@H](C(=O)N2CCCCC2)N(C)C(=O)[C@H](C(C)C)N(C)C(=O)C2(CCCC2)NC(=O)[C@@H]2CCCN2C(=O)[C@H](CCc2ccc(C(F)(F)F)c(Cl)c2)NC(=O)CN(C)C(=O)[C@H](CC2CCCCC2)N(C)C(=O)[C@@H]2CCN2C(=O)[C@H](CC2CC2)N(C)C1=O [Compound 1642] ([NMeL]I[NMeAla(cPr)][Aze][NMeCha][Sar][hPhe(3-Cl-4-CF3)]P[Ac5c][NMeV][NMeD]-Piperidide; lactam N-11) , state its recorded IC50.
[out] 58
